# System: SR
# test_method_notes: NCI tumour cell line growth inhibition, 48 h
Activity calls are given as the source filed them. Cut-off read from the data, not from the text of the source: active = GI50 up to about 1.1 µM and inactive = higher.
I'd be grateful if you could share measured GI50 for these entries.

Value of GI50 reported for the compound CCc1cc2c(c3c1CCCC3=O)CC1(C2)Cc2cc(CC)c3c(c2C1)C(=O)CCC3 is 24.1 µM (inactive)

Entry C=[N+](CNC(=O)CNC(=O)C(Cc1ccccc1)NC(=O)OC(C)(C)C)C(=O)CNC(=O)C(Cc1ccccc1)NC(=O)OC(C)(C)C (configuration not stated) , GI50 reported as > 100 µM (inactive)

For record CC(=O)NNc1nc(C)c(C(=O)NNC(=O)C(=O)Nc2c(C)cccc2C(C)C)s1 the listed GI50 is 40 µM (inactive)

The compound identified as COc1ccc(/C=C/C(=O)Oc2ccc(/C=C3\CCCCC3=O)cc2)cc1 registered its GI50 at > 100 µM (inactive)

The reported GI50 of the compound C1CNCCNCCN1 was > 100 µM (inactive)

The value of GI50 measured for the compound COc1ccc(NC(=O)CC(=O)n2nc(-c3ccccc3)c(/N=N/c3ccc(C)cc3)c2-c2ccccc2)cc1 turned out to be 47.2 µM (inactive)

Record summary for Cc1cc(-c2nc3cc(F)ccc3s2)ccc1NC(=O)C(C)N (configuration not stated) : reported GI50 = 0.351 µM (active)

Reference source: ChEMBL document CHEMBL1201862
